system: CD2F1 mice, L1210 leukemia ip, survival T/C; test: NCI In Vivo Anticancer Drug Screen. Data for tumor model L1210 Leukemia (intraperitoneal) in CD2F1 (CDF1) mice; settings: endpoint: mean survival time; dose: 12.5 mg/kg/injection; schedule: Q04DX003 (ip); vehicle: saline
Toxic doses and inconclusive results are not listed. The calls were made as follows: active = survival T/C of 150% or more; inactive = T/C below 125% in these data.
Hi! Could you answer with just one of these? active, inactive

[in] Which outcome was assigned to CCN(CCc1ccc(N)cc1)C(Cc1ccccc1)c1cccc(OC)c1 (configuration not stated) in this test?
[out] inactive

[in] Please state the recorded outcome for this molecule: c1ccc2c(c1)C1c3cccc[n+]3C2C2C1CC1C3c4ccccc4C(C12)[n+]1ccccc13 (configuration not stated)
[out] inactive

[in] Test call for this molecule, please: NCC(S)c1ccc(Cl)cc1 (configuration not stated)
[out] inactive

[in] What call does the record list for COc1ccccc1[As](=O)(O)CC(O)COc1ccc(Cl)cc1Cl (configuration not stated) ?
[out] inactive

[in] Outcome logged for CCCCN(CCCC)CCCN(CCCOS(C)(=O)=O)CCCOS(C)(=O)=O in this assay:
[out] inactive

[in] Kindly provide the recorded test outcome for the following molecule: Nc1ncn(C2OC(CO)C(O)C2O)c(=O)n1 (configuration not stated)
[out] active

[in] GET /call?item= CC(O)C[As](=O)(O)c1ccccc1Cl (configuration not stated) returns the recorded outcome of this test.
[out] inactive

###

system: CD2F1 mice, L1210 leukemia ip, survival T/C; assay: NCI In Vivo Anticancer Drug Screen. Data for tumor model L1210 Leukemia (intraperitoneal) in CD2F1 (CDF1) mice; conditions: endpoint: mean survival time; dose: 100.0 mg/kg/injection; schedule: Q04DX003 (ip); vehicle: saline with Tween-80; higher = longer survival
Toxic doses and inconclusive results are not listed.
Recorded endpoint: T/C

[in] For the compound O=S(=O)(O)SCc1ccccc1 , what T/C is on record?
[out] 97 % of control

[in] Given the compound O=c1oc(-c2ccc3c(c2)OCO3)nc2ccccc12 , what is its reported T/C?
[out] 91 % of control

[in] Looking for the measured T/C of O=C(Nc1cc(C(F)(F)F)ccc1Cl)c1cccc(Cl)c1 , can you help?
[out] 102 % of control

[in] # query: T/C of entry Nc1ccccc1Nc1ccncc1
[out] 91 % of control

[in] What does the record list as T/C for C=C(Br)COCC ?
[out] 89 % of control

[in] Sample CCOC(=O)Cn1c(=O)cc(C)c2ccccc21 — what was its T/C?
[out] 100 % of control

[in] Query (compound): CC(=O)Nc1ccc2oc(=O)ccc2c1 ; field requested: T/C
[out] 101 % of control

[in] Which T/C value belongs to CN(C)c1ccc(N=Nc2cccc(Cl)c2Cl)cc1 ?
[out] 95 % of control

[in] Name the recorded T/C for CCCCCCCCCCCCCCCCOc1ccc(S(=O)(=O)N(C)C)cc1[N+](=O)[O-] .
[out] 90 % of control

[in] Suppose we examine the compound CC1C=COC(C)CO1 (stereo unspecified) (tested in a mixture with another compound) ; what T/C value has been reported?
[out] 103 % of control

[in] Param item = O=C(O)CC/C(=N\O)c1cccc([N+](=O)[O-])c1 ; retrieve measured T/C.
[out] 102 % of control

[in] Could you tell me which T/C is on file for Cc1ccc([N+](=O)[O-])cc1NC(=O)COc1ccc(Cl)cc1 ?
[out] 98 % of control

[in] Give the measured T/C of ClC(Cl)(Cl)C(c1ccccc1)c1ccccc1 .
[out] 101 % of control

[in] # T/C lookup, item COC(=O)C1(C)CCCC2(C)C3CC4OC4(C(C)C)CC3(O)CCC12 (stereo unspecified)
[out] 96 % of control

[in] Please look up its T/C: N#CC1(Nc2ccccc2)CCCCC1
[out] 97 % of control

[in] Return reported T/C; argument: CCc1ccccc1OS(=O)(=O)c1cccc([N+](=O)[O-])c1
[out] 99 % of control

[in] Query (compound): O=C(NNc1ccccc1OCc1ccccc1)C(F)(F)F ; field requested: T/C
[out] 102 % of control

[in] Name the recorded T/C for OC(CCc1ccccc1)(C(F)(F)Cl)C(F)(F)Cl .
[out] 98 % of control

[in] Form field: reported T/C of O=C1c2ccccc2C(=O)c2ccccc21
[out] 87 % of control

[in] Return reported T/C; argument: Cc1c2cnccc2c(C)c2c1c1ccccc1n2CCNCc1ccccc1
[out] 105 % of control

[in] For the compound shown here, CCOC(=O)c1[nH]cnc1/N=N/N(C)C , give the reported T/C.
[out] 105 % of control

[in] Suppose we examine the compound Cc1ccc(C)c(C(=O)CCCCl)c1 ; what T/C value has been reported?
[out] 96 % of control

[in] Please look up its T/C: O=C(Cl)OC1CS(=O)(=O)CC1O (stereo unspecified)
[out] 98 % of control

[in] I am curious: what T/C value has been reported for CCOC(=O)/C(C#N)=C1/C=CC=CN1 ?
[out] 102 % of control

[in] Report T/C for CC12CCCC1=C1CCC3CC(OC(=O)c4ccccc4)CCC3(C)C1CC2 (stereo unspecified) please.
[out] 100 % of control

[in] Need T/C of Cc1ccc(OS(=O)(=O)c2ccc(C)cc2)cc1 , thanks.
[out] 96 % of control

###

Assignment: determine reported T/C for the given compounds.
test system: CD2F1 mice, L1210 leukemia ip, survival T/C; assay: NCI In Vivo Anticancer Drug Screen. Data for tumor model L1210 Leukemia (intraperitoneal) in CD2F1 (CDF1) mice; details: endpoint: mean survival time; dose: 200.0 mg/kg/injection; schedule: Q04DX003 (ip); vehicle: saline; higher = longer survival
Inconclusive results and toxic doses are left out.

[in] I have this compound here, CC(=O)c1c(C)cc2cccc(OC3OC(CO)C(O)C(O)C3O)c2c1O (configuration not stated) (tested in a mixture with another compound) , and I need its recorded T/C.
[out] 104 % of control

[in] Quick one: T/C for CC(=O)CCC(C)=O ?
[out] 100 % of control

[in] Form field: reported T/C of Cc1nc(N)n[nH]1
[out] 100 % of control

[in] Any idea what T/C was measured for COc1ccc(-c2nc(N)nc3c2CN(CCC(=O)O)C3=O)cc1 ?
[out] 100 % of control

[in] Need T/C of OC1(c2ccccc2)CN(Cc2ccccc2)CCO1 (configuration not stated) , thanks.
[out] 102 % of control

[in] // query T/C value for entry OCC(F)(F)C(F)(F)C(F)(F)CO
[out] 107 % of control

[in] Name the recorded T/C for NP(N)(=O)c1ccccc1 .
[out] 98 % of control

###

Tested on: CD2F1 mice, L1210 leukemia ip, survival T/C
Assay: NCI In Vivo Anticancer Drug Screen. Data for tumor model L1210 Leukemia (intraperitoneal) in CD2F1 (CDF1) mice
Conditions: endpoint: mean survival time; dose: 400.0 mg/kg/injection; schedule: Q01DX001 (ip); vehicle: Klucel (hydroxypropylcellulose) (HPC); higher = longer survival
Description: The antitumor activity of compounds was measured in mice bearing transplantable tumors. Survival or tumor size were measured and the results are expressed as the measurement made in the treated group (T) divided by the measurement made in the vehicle treated control group (C). The tumor model used in this assay is L1210 Leukemia (intraperitoneal) in CD2F1 (CDF1) mice
Inconclusive results and toxic doses are left out.
Hi there, I'd appreciate the recorded T/C for every entry that follows.

[in] T/C for CCOC(=O)Nc1cc2c(c(N)n1)NC(CN(C)c1ccccc1)CN2 (centres undefined) ?
[out] 110 % of control

[in] So what's the measured T/C for this one? Nc1cccc(OCCOc2ccccc2[N+](=O)[O-])c1
[out] 90 % of control

[in] I have this compound here, CC(=O)Nc1cccc(/C=C/c2ccc([N+](=O)[O-])cc2)c1 , and I need its recorded T/C.
[out] 93 % of control

[in] What value of measured T/C is listed for CCOC(=O)Nc1cc(NCc2ccccc2)c2[nH]cnc2n1 ?
[out] 98 % of control

###

tested on: CD2F1 mice, L1210 leukemia ip, survival T/C; assay: NCI In Vivo Anticancer Drug Screen. Data for tumor model L1210 Leukemia (intraperitoneal) in CD2F1 (CDF1) mice; conditions: endpoint: mean survival time; dose: 400.0 mg/kg/injection; schedule: Q04DX003 (ip); vehicle: saline with Tween-80; higher = longer survival
Inconclusive results and toxic doses are left out. Non-standard residues stand in square brackets, D forms with d. Residues, ends and D or L forms follow the SMILES beside them. ξ: configuration not given here. *: point of attachment. ξF = NC(Cc1ccccc1)C(=O)O; ClAc = O=C(CCl)*
Task for the reader: assign each of the following compounds its reported T/C.

[in] GET /values?readout=T/C&system=CD2F1 mice, L1210 leukemia ip, survival T/C&item= CCCCCCCCCCCCCCCCOc1ccccc1NC(=O)CC(C)=O
[out] 95 % of control

[in] # value lookup — system CD2F1 mice, L1210 leukemia ip, survival T/C, readout T/C, item Cc1cc2nc(C(=C(c3nc4cc(C)c(C)cc4[nH]3)c3nc4cc(C)c(C)cc4[nH]3)c3nc4cc(C)c(C)cc4[nH]3)[nH]c2cc1C
[out] 89 % of control

[in] Hi! What's the reported T/C for Clc1ccc(OCCOc2ccc(Cl)cc2Cl)c(Cl)c1 on CD2F1 mice, L1210 leukemia ip, survival T/C?
[out] 100 % of control

[in] Give CD2F1 mice, L1210 leukemia ip, survival T/C T/C for CN(C)c1ccc(/C=C(\C#N)c2ccc(Cl)cc2)c(Cl)c1
[out] 86 % of control

[in] State its T/C on CD2F1 mice, L1210 leukemia ip, survival T/C: O=C(Nc1cc(C(F)(F)F)ccc1Cl)c1cccc(Cl)c1
[out] 94 % of control

[in] # query: T/C | item OC(CS)C(c1ccccc1)c1ccccc1 (stereo not given) | system: CD2F1 mice, L1210 leukemia ip, survival T/C
[out] 96 % of control

[in] Form entry - test system: CD2F1 mice, L1210 leukemia ip, survival T/C; read-out: T/C; compound: Cc1ccc(OS(=O)(=O)c2ccc(C)cc2)cc1
[out] 98 % of control

[in] Lab request: please report T/C under test system CD2F1 mice, L1210 leukemia ip, survival T/C for O=C(CCl)NCC(=O)NC(Cc1ccccc1)C(=O)O (stereo not given) (ClAc-Gly-[ξF]-OH)
[out] 96 % of control

[in] Item: C[S+](C)CCC1NC(=O)NC1=O (stereo not given) Test system: CD2F1 mice, L1210 leukemia ip, survival T/C Read-out: T/C Value: ?
[out] 93 % of control

[in] # get_value(readout= T/C, system= CD2F1 mice, L1210 leukemia ip, survival T/C) for Cc1ccccc1NC(=O)C1CCC(C)(C(=O)O)C1(C)C (stereo not given)
[out] 96 % of control

[in] # returns recorded T/C (system: CD2F1 mice, L1210 leukemia ip, survival T/C) for CCN(C(=O)Nc1cccc2ccccc12)c1ccccc1
[out] 109 % of control

[in] For CD2F1 mice, L1210 leukemia ip, survival T/C, provide T/C of O=C1CCC2(c3ccccc3)C1C2c1ccccc1 (stereo not given) please.
[out] 101 % of control

[in] Could you share what T/C was measured for O=C(O)C1C2C=CC(C2)C1C(=O)O (stereo not given) , tested on CD2F1 mice, L1210 leukemia ip, survival T/C?
[out] 98 % of control

[in] # query: T/C | item COc1ccc2c(c1)c(C(=O)O)cc(=O)n2C | system: CD2F1 mice, L1210 leukemia ip, survival T/C
[out] 96 % of control

[in] Param readout= T/C; system= CD2F1 mice, L1210 leukemia ip, survival T/C; entry= O=C(c1ccccc1)C(C(c1ccc([N+](=O)[O-])cc1)N1CCOCC1)N1CCOCC1 (stereo not given) ; returns value.
[out] 108 % of control

[in] Param readout = T/C; param system = CD2F1 mice, L1210 leukemia ip, survival T/C; param query = Clc1c(Cl)c(CBr)c(Cl)c(-c2c(Cl)c(Cl)c(Cl)c(CBr)c2Cl)c1Cl ; response: value
[out] 104 % of control

[in] Which measured T/C belongs to COc1cc(Cc2nc(Cl)cc(Cl)n2)cc(OC)c1OC , tested on CD2F1 mice, L1210 leukemia ip, survival T/C?
[out] 97 % of control

[in] API: value(readout=T/C, system=CD2F1 mice, L1210 leukemia ip, survival T/C) for record CC1(C)OCC(C2OC3OC(C)(C)OC3C2O)O1 (stereo not given)
[out] 103 % of control

[in] Request - read-out T/C | tested on CD2F1 mice, L1210 leukemia ip, survival T/C | compound CCOC(CNc1ccc([N+](=O)[O-])cc1)OCC
[out] 96 % of control

[in] GET /values?readout=T/C&system=CD2F1 mice, L1210 leukemia ip, survival T/C&item= CCCCCCCCCCCCCCCCCC[N+]1(C)CCC[N+](C)(CCCCCCCCCCCCCCCCCC)CC1 (stereo not given)
[out] 88 % of control

[in] API: value(readout=T/C, system=CD2F1 mice, L1210 leukemia ip, survival T/C) for record Cc1ccc(C(=O)CC#N)c(C)c1
[out] 102 % of control

[in] Item: CCOC(=O)c1ccc(NC(=O)N(C)C2CCCCC2)cc1 Test system: CD2F1 mice, L1210 leukemia ip, survival T/C Read-out: T/C Value: ?
[out] 91 % of control

[in] API: value(readout=T/C, system=CD2F1 mice, L1210 leukemia ip, survival T/C) for record Cc1cc(Cl)ccc1NS(=O)(=O)c1cccc([N+](=O)[O-])c1
[out] 90 % of control

[in] Which T/C is reported with CD2F1 mice, L1210 leukemia ip, survival T/C for this entry: CCCCC(CC)C(O)CC(O)CC (stereo not given) ?
[out] 91 % of control

[in] Give the reported T/C for O=C1CCc2c(Br)cccc21 (system: CD2F1 mice, L1210 leukemia ip, survival T/C).
[out] 101 % of control
